Form field: shrunken log2 fold change (one value per entry).
Test system: Escherichia coli TOP10;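 note: peptides expressed intracellularly from a pBAD plasmid library in pooled LB shake-flask culture, induced with 0.3% L-arabinose, DNA abundance read by NGS, three biological replicates, DESeq2 with apeglm shrinkage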
Test: shrunken log2 fold change of peptide-encoding DNA abundance (4.5 h post-induction vs induction); higher = less antimicrobial activity (less host growth inhibition)
Conditions: time post-induction: 4.5 h; library: site-saturation at positions 5, 18, 19, 20
Readout: shrunken log2 fold change

{"Seq string": "RRIRTRPPRLPRPRPRPFDWPRP", "Experimental result": 0.0371}
{"Seq string": "RRIRARPPRLPRPRPRPILLPRP", "Experimental result": -0.293}
{"Seq string": "RRIRERPPRLPRPRPRPQTFPRP", "Experimental result": -0.0695}
{"Seq string": "RRIRIRPPRLPRPRPRPDPYPRP", "Experimental result": -0.555}
{"Seq string": "RRIRDRPPRLPRPRPRPNAIPRP", "Experimental result": 0.13}
{"Seq string": "RRIRRRPPRLPRPRPRPHFGPRP", "Experimental result": 0.111}
{"Seq string": "RRIRIRPPRLPRPRPRPEVHPRP", "Experimental result": -0.102}
{"Seq string": "RRIRKRPPRLPRPRPRPDKDPRP", "Experimental result": -0.0555}
{"Seq string": "RRIRDRPPRLPRPRPRPSTVPRP", "Experimental result": 0.154}
